Test: Population PK analysis
Assay type: in vivo, human
Settings: human, plasma, oral, VTFV, apparent volume of distribution of tenofovir, full final model, bootstrap median (n = 2000 samples)
recordedEndpoint: Vd (L)
Numbers only; they are read as L.

q: Name the recorded Vd for C[C@H](Cn1cnc2c(N)ncnc21)OCP(=O)(O)O .
a: 2400

---

Experiment: Population PK analysis
Format: in vivo, human
Details: human, plasma, oral
recordedEndpoint: half-life (h)
Numbers only; they are read as h.

q: Name the recorded half-life for C[C@H](Cn1cnc2c(N)ncnc21)OCP(=O)(O)O [tenofovir] .
a: 46
